This collection of values is drawn from the supplement of paper PMC11061612.

# Tested on: SK-LMS-1 (Other Solid Carcinomas);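 also: after 72 h of two-drug dosing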
# test_details: Bliss excess, mean over the matrix (fraction); higher = more synergy
readout_kind: Bliss excess

[[record]]
compound = "CC(=O)c1c(C)c2cnc(Nc3ccc(N4CCNCC4)cn3)nc2n(C2CCCC2)c1=O [Palbociclib] + CC1(C)CCC(CN2CCN(c3ccc(C(=O)NS(=O)(=O)c4ccc(NCC5CCOCC5)c([N+](=O)[O-])c4)c(Oc4cnc5[nH]ccc5c4)c3)CC2)=C(c2ccc(Cl)cc2)C1 [Venetoclax] (first compound max 10 µM, 7x7, partner max 1 µM)"
readout_kind = "Bliss excess"
value_reported = -0.0316

[[record]]
compound = "CN(C)CCCOc1ccc(-c2ccc3ncc4c(c3c2)n(C2CCOCC2)c(=O)n4C)cn1 [AZD0156] + C[C@@H]1COCCN1C2=NC(=NC(=C2)C3(CC3)[S@](=N)(=O)C)C4=C5C=CNC5=NC=C4 [AZD6738] (first compound max 1 µM, 7x7, partner max 10 µM)"
readout_kind = "Bliss excess"
value_reported = 0.0122

[[record]]
compound = "CN(CCO)CC[C@H](CSc1ccccc1)Nc1ccc(S(=O)(=O)NC(=O)c2ccc(N3CCC([C@@H](O)c4ccccc4-c4ccc(Cl)cc4)CC3)cc2)cc1S(=O)(=O)C(F)(F)F [AZD4320] + CS(=O)(=O)CCNCc1ccc(-c2ccc3ncnc(Nc4ccc(OCc5cccc(F)c5)c(Cl)c4)c3c2)o1 [Lapatinib] (first compound max 1 µM, 7x7, partner max 10 µM)"
readout_kind = "Bliss excess"
value_reported = 0.0357

[[record]]
compound = "COc1cccc(OCCCN)c1-c1cc(Nc2cnc(C#N)cn2)n[nH]1 [Prexasertib] + CN(C)CCCOc1ccc(-c2ccc3ncc4c(c3c2)n(C2CCOCC2)c(=O)n4C)cn1 [AZD0156] (first compound max 1 µM, 7x7, partner max 1 µM)"
readout_kind = "Bliss excess"
value_reported = -0.02

[[record]]
compound = "Cc1cc2ncnn2cc1Nc1ncc2c(n1)n(C1CCOCC1)c(=O)n2C [AZD7648] + CCN(CCO)CCCOc1ccc2c(Nc3cc(CC(=O)Nc4cccc(F)c4)[nH]n3)ncnc2c1 [AZD2811] (first compound max 10 µM, 7x7, partner max 1 µM)"
readout_kind = "Bliss excess"
value_reported = -0.0162

